Here, each record is paired with measured pKi data.
target.system: HIV-1 protease (Human immunodeficiency virus type 1 group M subtype B, UniProt P04585)
procedure.details: Inhibition constants against HIV-1 protease (method of Pennington et al.)
Format: biochemical
assay.context: HIV-1 protease; read-out: Ki value
# pKi is unitless: minus log10 of the molar concentration; print number only

The cases that follow already have their pKi on record.
CC(=O)Nc1ccc(S(=O)(=O)N(CC(C)C)C[C@@H](O)[C@H](Cc2ccccc2)NC(=O)[C@@H](NC(=O)OCc2ccccn2)C(C)C)cc1 = 9.00
CC(C)CN(C[C@@H](O)[C@H](Cc1ccccc1)NC(=O)O[C@H]1CCOC1)S(=O)(=O)c1ccc(Cl)c(Cl)c1 = 10.00
Nc1ccc(S(=O)(=O)N(CC2CCCC2)C[C@@H](O)[C@H](Cc2ccccc2)NC(=O)O[C@H]2CCOC2)cc1 = 9.70

Bench note, HIV-1 protease (Human immunodeficiency virus type 1 group M subtype B, UniProt P04585): entry `C=C(C)CN(C[C@@H](O)[C@H](Cc1ccccc1)NC(=O)OC(C)(C)C)S(=O)(=O)c1ccc(NC(C)=O)cc1` , its pKi = 7.22

Bench note, HIV-1 protease (Human immunodeficiency virus type 1 group M subtype B, UniProt P04585): entry `NC(=O)C[C@H](NC(=O)c1ccc2ccccc2n1)C(=O)N[C@@H](Cc1ccccc1)[C@H](O)CN(Cc1ccccc1)S(=O)(=O)c1cccc(S(N)(=O)=O)c1` , its pKi = 8.40

Bench note, HIV-1 protease (Human immunodeficiency virus type 1 group M subtype B, UniProt P04585): entry `CC(C)CN(C[C@@H](O)[C@H](Cc1ccccc1)NC(=O)OCc1ccccc1)S(=O)(=O)c1ccc2nonc2c1` , its pKi = 9.15

Bench note, HIV-1 protease (Human immunodeficiency virus type 1 group M subtype B, UniProt P04585): entry `CC(C)CN(C[C@@H](O)[C@H](Cc1ccccc1)NC(=O)OCc1cccnc1)S(=O)(=O)c1ccc2nonc2c1` , its pKi = 8.82

Bench note, HIV-1 protease (Human immunodeficiency virus type 1 group M subtype B, UniProt P04585): entry CC(=O)Nc1ccc(S(=O)(=O)N(CC(C)C)CC(O)C(Cc2ccccc2)NC(=O)OC2CCOC2)cc1 (stereo not shown) , its pKi = 8.30

Bench note, HIV-1 protease (Human immunodeficiency virus type 1 group M subtype B, UniProt P04585): entry `C=C(C)CN(C[C@@H](O)[C@H](Cc1ccccc1)NC(=O)O[C@H]1CCOC1)S(=O)(=O)c1ccc(NC(C)=O)cc1` , its pKi = 8.08

---

target.system: HIV-1 protease (Human immunodeficiency virus type 1 group M subtype B)
procedure.details: Inhibition constants against HIV-1 protease (method of Pennington et al.)
Assay type: biochemical
assay.context: HIV-1 protease; read-out: Ki value
quantity.kind: Ki (nM)
Number only, in nM; omit the unit.

CC(=O)Nc1ccc(S(=O)(=O)N(CC(C)C)C[C@@H](O)[C@H](Cc2ccccc2)NC(=O)OC(C)C)cc1 = 17
CC(=O)N1CCc2ccc(S(=O)(=O)N(CC3CCCC3)CC(O)[C@H](Cc3ccccc3)NC(=O)O[C@H]3CCOC3)cc21 (stereo partly drawn) = 0.7

Bench note, HIV-1 protease (Human immunodeficiency virus type 1 group M subtype B): entry CC(C)CN(C[C@@H](O)[C@H](Cc1ccccc1)NC(=O)C(CC(N)=O)C(=O)OCc1ccccn1)S(=O)(=O)c1ccc(F)cc1 (stereo partly drawn) , its Ki = 0.1

Bench note, HIV-1 protease (Human immunodeficiency virus type 1 group M subtype B): entry `CC(=O)Nc1ccc(S(=O)(=O)N(CC2CCCCC2)C[C@@H](O)[C@H](Cc2ccccc2)NC(=O)O[C@H]2CCOC2)cc1` , its Ki = 1

---

target.system: HIV-1 protease (Human immunodeficiency virus type 1 group M subtype B, UniProt P04585)
procedure.details: Inhibition constants against HIV-1 protease (method of Pennington et al.)
Type: biochemical
assay.context: HIV-1 protease; read-out: Ki value
Here, each record is paired with measured pKi data.
# pKi is unitless: minus log10 of the molar concentration; print number only

CC(C)CN(C[C@@H](O)[C@H](Cc1ccccc1)NC(=O)OC(C)(C)C)S(=O)(=O)c1ccc(F)cc1F = 8.05
CC(=O)Nc1ccc(COC(=O)N[C@@H](Cc2ccccc2)[C@H](O)CN(CC(C)C)S(=O)(=O)c2ccc(NC(C)=O)cc2)cc1 = 8.10
COc1ccc(OC)c(S(=O)(=O)N[C@@H](Cc2ccccc2)[C@H](O)CN(CC(C)C)S(=O)(=O)c2ccc(F)c(NC(C)=O)c2)c1 = 6.85
C=CCOC(=O)N[C@@H](Cc1ccccc1)[C@H](O)CN(CC1CCCC1)S(=O)(=O)c1ccc(NC(C)=O)cc1 = 8.70
CC(C)CN(CC(O)[C@H](Cc1ccccc1)NC(=O)O[C@@H]1CCOC1)S(=O)(=O)c1ccc(F)cc1 (stereo partly drawn) = 9.40

Below: the item to evaluate.
Bench note, HIV-1 protease (Human immunodeficiency virus type 1 group M subtype B, UniProt P04585): entry `CC(=O)Nc1ccc(S(=O)(=O)N(C)C[C@@H](O)[C@H](Cc2ccccc2)NC(=O)O[C@H]2CCOC2)cc1` , its pKi = 6.60

---

Here, each record is paired with measured log10(Ki) data.
target.system: HIV-1 protease (Human immunodeficiency virus type 1 group M subtype B)
procedure.details: Inhibition constants against HIV-1 protease (method of Pennington et al.)
Type: biochemical
assay.context: HIV-1 protease; read-out: Ki value
Scale: decimal log of Ki, Ki in nM.

CC(C)CN(C[C@@H](O)[C@H](Cc1ccccc1)NC(=O)O[C@@H](C)c1ccccc1)S(=O)(=O)c1cccc2nonc12 = 1.78
CC(C)CN(C[C@@H](O)[C@H](Cc1ccccc1)NC(=O)O[C@H]1CCOC1)S(=O)(=O)c1ccc(-c2ccon2)s1 = 0.15
CC(C)CN(C[C@@H](O)[C@H](Cc1ccccc1)NC(=O)O[C@H]1CCOC1)S(=O)(=O)c1ccc(Cl)cc1 = -0.62
CC(=O)Nc1ccc(S(=O)(=O)N(CC(C)C)CC(O)C(Cc2ccccc2)NC(=O)OCC2COC(=O)N2)cc1 (stereo not drawn) = 1.45
O=C(N[C@@H](Cc1ccccc1)[C@H](O)CN(CC1CCCC1)S(=O)(=O)c1ccc([N+](=O)[O-])cc1)O[C@H]1CCOC1 = -0.70

// recorded log10(Ki) for `CC(C)CN(C[C@@H](O)[C@H](Cc1ccccc1)NC(=O)[C@@H](NC(=O)OCc1ccccn1)C(C)C)S(=O)(=O)N(C)C` : 4.51

---

target.system: HIV-1 protease (Human immunodeficiency virus type 1 group M subtype B, UniProt P04585)
procedure.details: Inhibition constants against HIV-1 protease (method of Pennington et al.)
Assay type: biochemical
assay.context: HIV-1 protease; read-out: Ki value
quantity.kind: pKi
# pKi is unitless: minus log10 of the molar concentration; print number only

C=CCOC(=O)N[C@@H](Cc1ccccc1)[C@H](O)CN(CC(C)C)S(=O)(=O)c1ccc(Cl)c(Cl)c1 [Compound 81] = 8.64

// recorded pKi for CCOC(=O)N[C@@H](Cc1ccccc1)[C@H](O)CN(CC(C)C)S(=O)(=O)c1ccc(Cl)c(Cl)c1 [Compound 119] : 8.74

// recorded pKi for CC(C)CN(C[C@@H](O)[C@H](Cc1ccccc1)NC(=O)[C@H](CC(N)=O)NC(=O)c1ccc2ccccc2n1)S(=O)(=O)c1ccc(F)cc1 [Compound 14] : 10.00

---

target.system: HIV-1 protease (Human immunodeficiency virus type 1 group M subtype B, UniProt P04585)
procedure.details: Inhibition constants against HIV-1 protease (method of Pennington et al.)
Assay type: biochemical
assay.context: HIV-1 protease; read-out: Ki value
Where a name gives a salt, the structure may show the parent alone.
quantity.kind: Ki (nM)
Number only, in nM; omit the unit.

The cases that follow already have their Ki on record.
COc1ccc(S(=O)(=O)N(CC2CCCC2)C[C@@H](O)[C@H](Cc2ccccc2)NC(=O)OCc2cccc(OC)c2)cc1 = 0.1
C=C(C)CN(C[C@@H](O)[C@H](Cc1ccccc1)NC(=O)OC(C)(C)C)S(=O)(=O)c1ccc(F)cc1 = 14
O=C(N[C@@H](Cc1ccccc1)[C@H](O)CN(Cc1ccco1)S(=O)(=O)c1ccc(F)cc1)O[C@H]1CCOC1 = 18
CC(C)CN(C[C@@H](O)[C@H](Cc1ccccc1)NC(=O)OC(C)(C)C)S(=O)(=O)c1ccc2nonc2c1 = 3
CC(C)CN(CC(O)[C@H](Cc1ccccc1)NC(=O)O[C@H]1CCOC1)S(=O)(=O)c1cccnc1 (stereo partly shown) [Compound 144, trifluoroacetic acid salt] = 8

Bench note, HIV-1 protease (Human immunodeficiency virus type 1 group M subtype B, UniProt P04585): entry `CC(C)CN(C[C@@H](O)[C@H](Cc1ccccc1)NC(=O)OC(C)(C)C)S(=O)(=O)c1cccc2nonc12` , its Ki = 34

Bench note, HIV-1 protease (Human immunodeficiency virus type 1 group M subtype B, UniProt P04585): entry `O=C(N[C@@H](Cc1ccccc1)[C@H](O)CN(CC1CCCC1)S(=O)(=O)c1ccc(OC(F)(F)F)cc1)O[C@H]1CCOC1` , its Ki = 0.8

Bench note, HIV-1 protease (Human immunodeficiency virus type 1 group M subtype B, UniProt P04585): entry `C=CCOC(=O)N[C@@H](Cc1ccccc1)[C@H](O)CN(CC1CCCC1)S(=O)(=O)c1ccc2c(c1)CCN2C(C)=O` , its Ki = 2.8

Bench note, HIV-1 protease (Human immunodeficiency virus type 1 group M subtype B, UniProt P04585): entry `CC(=O)Nc1ccc(S(=O)(=O)N(CC(C)C)C[C@@H](O)[C@H](Cc2ccccc2)NC(=O)OCCN2CCCC2=O)cc1` , its Ki = 61

Bench note, HIV-1 protease (Human immunodeficiency virus type 1 group M subtype B, UniProt P04585): entry `CN(C[C@@H](O)[C@H](Cc1ccccc1)NC(=O)OC(C)(C)C)S(=O)(=O)c1ccc(F)cc1` , its Ki = 650

Bench note, HIV-1 protease (Human immunodeficiency virus type 1 group M subtype B, UniProt P04585): entry `CC(C)CN(C[C@@H](O)[C@H](Cc1ccccc1)NC(=O)OC(C)(C)C)S(=O)(=O)c1ccccc1` , its Ki = 6

Bench note, HIV-1 protease (Human immunodeficiency virus type 1 group M subtype B, UniProt P04585): entry `CC(C)CN(C[C@@H](O)[C@H](Cc1ccccc1)NC(=O)O[C@H]1CCOC1)S(=O)(=O)N1CCOCC1` , its Ki = 20

Bench note, HIV-1 protease (Human immunodeficiency virus type 1 group M subtype B, UniProt P04585): entry `NC(=O)C[C@H](NC(=O)c1ccc2ccccc2n1)C(=O)N[C@@H](Cc1ccccc1)[C@H](O)CN(Cc1ccccc1)S(=O)(=O)c1cccc(C(=O)O)c1` , its Ki = 8
